- System: VEGF-121 (Homo sapiens), P15692-9
- Sequence: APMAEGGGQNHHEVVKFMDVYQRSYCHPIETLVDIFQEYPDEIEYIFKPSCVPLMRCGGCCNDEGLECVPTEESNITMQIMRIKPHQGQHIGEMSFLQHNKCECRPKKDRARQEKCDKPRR
- Experimental Details: filter
- Condition Set: as 4867-31_192 plus 2'-OMe C1 and PS 3' of A24,A25,A26; 3'-idT
pKd: −log10 of the molar value.

>  <Residue String>
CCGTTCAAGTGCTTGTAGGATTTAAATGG [4867-31_481]

>  <pKd>
10.59

$$$$
